Values compiled from patent US20250270296A1.

# Substrate: S protein of SARS-CoV-2 variant B.1.1.7 (UK, Alpha), full length, on pseudovirus or authentic virus (SARS-CoV-2), P0DTC2
# measurement protocol: cell-based or functional assay
measurement kind: PRNT50 (ng/mL)
Please respond with the number in ng/mL and leave the unit unwritten.

- binder: "RBD-chAb-28 (antibody, V domains shown) VH: QVQLQQPGTELVMPGASVKMSCKASGYTFTDYYLHWMKQRPGQGLEWIGAIDSSDSYTDYNQNFKGKATLTVDESSSTAYMHLSSLTSEDSAVYYCARGKDAYDRRPWFAYWGQGTLVTVSA VL: DIQMTQTTSSLSASLGDRVTISCSASQGIRYYLNWYQQKPDGTVKLLIYYTSNLHSGVPSRFSGSGSGTDYSLTISNLEPEDIATYYCQQYNKLPYTFGGGTKLDIK"
  PRNT50 (ng/mL): 58.5
- binder: "RBD-chAb-45 (antibody, V domains shown) VH: EVQLQQSGPELVKPGASVKISCKTSGYTFTEYTIYWVKQSLGKSLEWIGGNNPNNDDTTYKQFFKGKATLTVDKSSSTAYMELRSLTSEDSAVYYCARDGYPYYYALDFWGQGTSVTVSS VL: DILMTQSQKFMSTSVGDRVSVTCKSSQNVGTNVAWYQQKPGQSPKALIYSASYRYSGVPDHFTGSGSGTDFTLTISNVQSADLAEYFCQQYNNYPWTFGGGTKLDIK"
  PRNT50 (ng/mL): 5.29
- binder: "RBD-chAb-51 (antibody, V domains shown) VH: EVQLQQSGPELVKPGASAKISCKTSGYTFTEYTMYWVKQSHGKSLEWIGGINPNNGDTTYNQTFKGKATLTVDKSSSTAYMELRSLTSEDSAVYYCARDGYPFYYALDYWGQGISVTVSS VL: DIVMTQSQKFMSTSVGDRVSVTCKARQIVGTNVAWYQQKPGQSPKALIYSASYRYSGVPDRFTGSGSGTDFTLTITNVHSEDLAEFFCHQYNSYPWTFGGGTKLDIK"
  PRNT50 (ng/mL): 6.39

Task: Return reported PRNT50; argument: RBD-chAb-15 (antibody, V domains shown) VH: EVQLEESGPGLVQPSQSLSITCTVSDFSLTTYGVHWVRQSPGKGLEWLGVIWSGGSTDYNAAFISRLSISKDNSKSQVFFKMNSLQTNDTAIYYCARMGDGYYVGAMDYWGQGTSVTVSS VL: DIQLTQSPAILSVSPGERVSFSCRASQSIGTSIHWYQQRTNGSPRHLIKYASESISGIPSRFSGSGSGTDFTLTINGVESEDIADYYCQQGHNWPLTFGAGTKLDIK
Output: 58.1
